# Tested on: TK (B-Cell Non-Hodgkin's Lymphoma)
# Protocol Notes: combination Emax (second highest fraction inhibited in the dose matrix, 72 h); higher = more inhibition; extreme values may be limits of the assay
Measured Endpoint: combination Emax
Respond numerically, and do not add a unit to the figure.

I am curious: what combination Emax value has been reported for CC(=O)c1c(C)c2cnc(Nc3ccc(N4CCNCC4)cn3)nc2n(C2CCCC2)c1=O [Palbociclib] + Cc1c2c(nn1C)CSCc1cc(n(C)n1)CSc1cc(c3ccccc3c1)OCCCc1c(C(=O)O)n(C)c3c-2c(Cl)ccc13 [AZD5991] (first compound max 10 µM, 7x7, partner max 1 µM) ? 0.266

Please give the result for C=CCn1c(=O)c2cnc(Nc3ccc(N4CCN(C)CC4)cc3)nc2n1-c1cccc(C(C)(C)O)n1 [AZD1775] + C[C@@H]1COCCN1C2=NC(=NC(=C2)C3(CC3)[S@](=N)(=O)C)C4=C5C=CNC5=NC=C4 [AZD6738] (first compound max 1 µM, partner max 10 µM) too. 0.94

Same lookup for C[C@@H](c1ccc2nccn2c1)n1nnc2ncc(-c3cnn(C)c3)nc21 [Savolitinib] + CC1(C)CCC(CN2CCN(c3ccc(C(=O)NS(=O)(=O)c4ccc(NCC5CCOCC5)c([N+](=O)[O-])c4)c(Oc4cnc5[nH]ccc5c4)c3)CC2)=C(c2ccc(Cl)cc2)C1 [Venetoclax] (first compound max 1 µM, 7x7, partner max 1 µM) , please. 0.907

And the next one, Cn1cnc2c(F)c(Nc3ccc(Br)cc3Cl)c(C(=O)NOCCO)cc21 [Selumetinib] + CCN(CCO)CCCOc1ccc2c(Nc3cc(CC(=O)Nc4cccc(F)c4)[nH]n3)ncnc2c1 [AZD2811] (first compound max 10 µM, 7x7, partner max 1 µM) ? 0.262

// repeat for COc1cccc2c1C(=O)c1c(O)c3c(c(O)c1C2=O)C[C@@](O)(C(=O)CO)C[C@@H]3O[C@H]1C[C@H](N)[C@H](O)[C@H](C)O1 [Doxorubicin] + Cc1cc2ncnn2cc1Nc1ncc2c(n1)n(C1CCOCC1)c(=O)n2C [AZD7648] (first compound max 1 µM, 7x7, partner max 10 µM) and report 0.73

Likewise for Cc1c2c(nn1C)CSCc1cc(n(C)n1)CSc1cc(c3ccccc3c1)OCCCc1c(C(=O)O)n(C)c3c-2c(Cl)ccc13 [AZD5991] + C[C@@H]1COCCN1C2=NC(=NC(=C2)C3(CC3)[S@](=N)(=O)C)C4=C5C=CNC5=NC=C4 [AZD6738] (first compound max 1 µM, 7x7, partner max 10 µM) ? 0.895

Also check CCN(CCO)CCCOc1ccc2c(Nc3cc(CC(=O)Nc4cccc(F)c4)[nH]n3)ncnc2c1 [AZD2811] + C[C@@H]1COCCN1C2=NC(=NC(=C2)C3(CC3)[S@](=N)(=O)C)C4=C5C=CNC5=NC=C4 [AZD6738] (first compound max 1 µM, 7x7, partner max 10 µM) 0.901
